- experiment: Cytotoxicity against human BEAS-2B cells assessed as cell growth inhibition
- Type: toxicity, cell-based
pIC50: −log10 of the molar value.
Let's look at some compounds and their measured pIC50.

compound | recordedEndpoint | val
COc1c(O)c(CN2CCN(S(=O)(=O)c3ccc(F)c(Cl)c3)CC2)c2c(c1O)C1O[C@H](CO)[C@@H](O)[C@H](O)C1OC2=O (some centres undefined) | pIC50 | < 4.00

Request: I have this compound here, COc1c(O)cc2c(c1O)C1O[C@H](CO)[C@@H](O)[C@H](O)C1OC2=O (some centres undefined) , and I need its recorded pIC50.
Response: < 4.00

Request: Try this compound too: COc1c(O)c(CN2CCN(CC(=O)Nc3nc4ccccc4s3)CC2)c2c(c1O)C1O[C@H](CO)[C@@H](O)[C@H](O)C1OC2=O (some centres undefined)
Response: 4.01

Request: COc1c(O)c(CN2CCN(S(=O)(=O)c3ccc(C(F)(F)F)cc3)CC2)c2c(c1O)C1O[C@H](CO)[C@@H](O)[C@H](O)C1OC2=O (some centres undefined)
Response: < 4.00

Where do the numbers come from? From ChEMBL document CHEMBL5108039.
